# measurement-target: FIV PR (Feline immunodeficiency virus, UniProt P16088, C122K/G43I/N93T)
# assay-comment: Inhibition of FIV PR (Ki, IC50)
Reported values of pKi for individual entries
Reminder that pKi means the negative base-10 logarithm of the concentration expressed in mol/L.

Use these answered entries as a reference point.
CC(C)[C@H](NC(=O)[C@H](C)NC(=O)OCc1ccccc1)C(=O)N[C@@H](Cc1ccccc1)[C@@H](O)[C@H](O)[C@H](Cc1ccccc1)NC(=O)[C@@H](NC(=O)[C@H](C)NC(=O)OCc1ccccc1)C(C)C	7.39
CC(C)(C)NC(=O)[C@@H]1C[C@@H]2CCCC[C@@H]2CN1C[C@@H](O)[C@H](Cc1ccccc1)NC(=O)[C@H](CC(N)=O)NC(=O)c1ccc2ccccc2n1 [RO31-8959, reference compound]	4.12
CC(C)[C@H](NC(=O)[C@H](CO)NC(=O)OCc1ccccc1)C(=O)N[C@@H](Cc1ccccc1)[C@@H](O)[C@H](O)[C@H](Cc1ccccc1)NC(=O)[C@@H](NC(=O)[C@H](CO)NC(=O)OCc1ccccc1)C(C)C	7.49

We next turn to a different compound, shown below.
Need pKi, item CC(C)[C@H](NC(=O)[C@H](Cc1ccccc1)NC(=O)OCc1ccccc1)C(=O)N[C@@H](Cc1ccccc1)[C@@H](O)[C@H](O)[C@H](Cc1ccccc1)NC(=O)[C@@H](NC(=O)[C@H](Cc1ccccc1)NC(=O)OCc1ccccc1)C(C)C [Compound 10b] 5.15
